These entries and their values trace back to patent US20210317213A1.

# study_target: Folate receptor-alpha (FOLR1) (human) (UniProt P15328)
# Sequence (P15328 25-234): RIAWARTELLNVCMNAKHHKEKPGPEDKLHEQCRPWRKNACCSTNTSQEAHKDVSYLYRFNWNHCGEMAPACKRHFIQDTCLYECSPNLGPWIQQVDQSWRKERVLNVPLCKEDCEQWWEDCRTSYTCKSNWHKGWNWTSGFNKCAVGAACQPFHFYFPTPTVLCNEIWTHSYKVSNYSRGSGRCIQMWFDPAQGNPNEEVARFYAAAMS
# test_summary: cell binding, FOLRα-expressing KB cells; through the folate moiety
experimental_endpoint: pKd
To interpret pKd, take it as minus log10 of a concentration measured in moles per litre.

Take a look at these entries with their results.
[[record]]
binder = "Fab1-HK129-5KPEG-Folate (Fab, V domains shown, pAF at HK129 (Kabat) conjugated to a bifunctional linker carrying folate and a linear 5K PEG (oxime), From E. coli; also called Fab1-5KPEG-Folate) VH: EVQLVESGGGLVQPGGSLRLSCAASGFTFNTYAMNWVRQAPGKGLEWVARIRSKYNNYATYYADSVKDRFTISRDDSKNILYLQMNSLKTEDTAVYYCVRHGNFGNSYVSWFAYWGQGTLVTVSS VL: QAVVTQEPSLTVSPGGTVTLTCRSSTGAVTTSNYANWVQQKPGQAPRGLIGGTNKRAPGTPARFSGSLLGGKAALTLSGAQPEDEAEYYCALWYSNLWVFGGGTKLTVLG"
test_result = 8.43

[[record]]
binder = "Fab1-HK129-LL157-BiFolate (Fab, V domains shown, pAF at LL157 (Kabat) conjugated to folate (oxime); pAF at HK129 (Kabat) conjugated to folate (oxime), From E. coli; carries two folates) VH: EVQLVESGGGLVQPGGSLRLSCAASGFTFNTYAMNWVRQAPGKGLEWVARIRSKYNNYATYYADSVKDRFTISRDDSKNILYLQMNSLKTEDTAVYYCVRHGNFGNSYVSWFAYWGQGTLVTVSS VL: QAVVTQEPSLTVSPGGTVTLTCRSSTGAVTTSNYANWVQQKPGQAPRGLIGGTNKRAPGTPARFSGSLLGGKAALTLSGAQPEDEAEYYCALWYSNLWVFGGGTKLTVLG"
test_result = 9.07

[[record]]
binder = "Fab1-HK129-LL157-BiFolate-Bi5KPEG (Fab, V domains shown, pAF at LL157 (Kabat) conjugated to a bifunctional linker carrying folate and 5K PEG (oxime); pAF at HK129 (Kabat) conjugated to a bifunctional linker carrying folate and 5K PEG (oxime), From E. coli; carries two folates and two 5K PEG; also called Fab1-HK129-LL157-Bi5KPEG-BiFolate) VH: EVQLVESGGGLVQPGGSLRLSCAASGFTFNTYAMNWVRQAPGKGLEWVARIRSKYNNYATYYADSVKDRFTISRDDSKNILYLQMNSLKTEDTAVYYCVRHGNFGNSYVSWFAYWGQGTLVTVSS VL: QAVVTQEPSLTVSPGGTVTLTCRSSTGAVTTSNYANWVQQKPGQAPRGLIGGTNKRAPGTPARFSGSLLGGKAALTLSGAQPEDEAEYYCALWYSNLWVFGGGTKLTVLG"
test_result = 8.64


Query: pKd; subject: Fab1-HK129-Folate (Fab, V domains shown, pAF at HK129 (Kabat) conjugated to folate (oxime), From E. coli; also called Folate lead; parent control) VH: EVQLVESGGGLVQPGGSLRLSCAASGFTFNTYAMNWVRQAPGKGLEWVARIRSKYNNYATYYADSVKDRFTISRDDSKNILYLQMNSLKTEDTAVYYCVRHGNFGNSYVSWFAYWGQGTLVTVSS VL: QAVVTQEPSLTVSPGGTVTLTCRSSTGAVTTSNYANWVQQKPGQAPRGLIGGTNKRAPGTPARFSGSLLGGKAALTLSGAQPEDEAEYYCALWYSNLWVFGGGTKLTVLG 8.71
